target: C5 (Homo sapiens); experiment: Human hemolysis assay (RBC lysis assay using complete human sera); type: cell-based; parameters: with complete human sera (Complement Technology, Tyler Tex.) and polypeptides; tissue Complement Technology, Tyler Tex; host or cells: complete human serum; conditions: inhibition of lysis of antibody-sensitized sheep erythrocytes, complete human sera
Observable: IC50 (µM)
State the answer as a number, implicitly in µM.

Per the reported C5 (Homo sapiens) data, CCC[C@H](NC(=O)[C@@H](NC(=O)[C@@H]1CCCN1C(=O)[C@H](Cc1ccc(O)cc1)NC(=O)[C@H](CCC(=O)O)NC(=O)[C@H](Cc1c[nH]c2ccccc12)NC(=O)[C@H](Cc1ccc(O)cc1)NC(=O)[C@@H](NC(=O)[C@H](CC(N)=O)NC(=O)[C@H](CCC(=O)O)NC(=O)[C@H](Cc1ccc(O)cc1)NC(C)=O)C(C)(C)C)c1ccccc1)C(N)=O [Compound R3041, Ac-Y-E-N-Tbg-Y-W-E-Y-P-Phg-Nvl-NH2] has IC50 of 0.0713

====

Answer each item with its documented pIC50.
biological target: C5 (Homo sapiens, UniProt P01031); assay: Human hemolysis assay (RBC lysis assay using complete human sera); assay type: cell-based; parameters: with complete human sera (Complement Technology, Tyler Tex.) and polypeptides; tissue Complement Technology, Tyler Tex; host or cells: complete human serum; settings: inhibition of lysis of antibody-sensitized sheep erythrocytes, complete human sera
Sequence (P01031 19-1676): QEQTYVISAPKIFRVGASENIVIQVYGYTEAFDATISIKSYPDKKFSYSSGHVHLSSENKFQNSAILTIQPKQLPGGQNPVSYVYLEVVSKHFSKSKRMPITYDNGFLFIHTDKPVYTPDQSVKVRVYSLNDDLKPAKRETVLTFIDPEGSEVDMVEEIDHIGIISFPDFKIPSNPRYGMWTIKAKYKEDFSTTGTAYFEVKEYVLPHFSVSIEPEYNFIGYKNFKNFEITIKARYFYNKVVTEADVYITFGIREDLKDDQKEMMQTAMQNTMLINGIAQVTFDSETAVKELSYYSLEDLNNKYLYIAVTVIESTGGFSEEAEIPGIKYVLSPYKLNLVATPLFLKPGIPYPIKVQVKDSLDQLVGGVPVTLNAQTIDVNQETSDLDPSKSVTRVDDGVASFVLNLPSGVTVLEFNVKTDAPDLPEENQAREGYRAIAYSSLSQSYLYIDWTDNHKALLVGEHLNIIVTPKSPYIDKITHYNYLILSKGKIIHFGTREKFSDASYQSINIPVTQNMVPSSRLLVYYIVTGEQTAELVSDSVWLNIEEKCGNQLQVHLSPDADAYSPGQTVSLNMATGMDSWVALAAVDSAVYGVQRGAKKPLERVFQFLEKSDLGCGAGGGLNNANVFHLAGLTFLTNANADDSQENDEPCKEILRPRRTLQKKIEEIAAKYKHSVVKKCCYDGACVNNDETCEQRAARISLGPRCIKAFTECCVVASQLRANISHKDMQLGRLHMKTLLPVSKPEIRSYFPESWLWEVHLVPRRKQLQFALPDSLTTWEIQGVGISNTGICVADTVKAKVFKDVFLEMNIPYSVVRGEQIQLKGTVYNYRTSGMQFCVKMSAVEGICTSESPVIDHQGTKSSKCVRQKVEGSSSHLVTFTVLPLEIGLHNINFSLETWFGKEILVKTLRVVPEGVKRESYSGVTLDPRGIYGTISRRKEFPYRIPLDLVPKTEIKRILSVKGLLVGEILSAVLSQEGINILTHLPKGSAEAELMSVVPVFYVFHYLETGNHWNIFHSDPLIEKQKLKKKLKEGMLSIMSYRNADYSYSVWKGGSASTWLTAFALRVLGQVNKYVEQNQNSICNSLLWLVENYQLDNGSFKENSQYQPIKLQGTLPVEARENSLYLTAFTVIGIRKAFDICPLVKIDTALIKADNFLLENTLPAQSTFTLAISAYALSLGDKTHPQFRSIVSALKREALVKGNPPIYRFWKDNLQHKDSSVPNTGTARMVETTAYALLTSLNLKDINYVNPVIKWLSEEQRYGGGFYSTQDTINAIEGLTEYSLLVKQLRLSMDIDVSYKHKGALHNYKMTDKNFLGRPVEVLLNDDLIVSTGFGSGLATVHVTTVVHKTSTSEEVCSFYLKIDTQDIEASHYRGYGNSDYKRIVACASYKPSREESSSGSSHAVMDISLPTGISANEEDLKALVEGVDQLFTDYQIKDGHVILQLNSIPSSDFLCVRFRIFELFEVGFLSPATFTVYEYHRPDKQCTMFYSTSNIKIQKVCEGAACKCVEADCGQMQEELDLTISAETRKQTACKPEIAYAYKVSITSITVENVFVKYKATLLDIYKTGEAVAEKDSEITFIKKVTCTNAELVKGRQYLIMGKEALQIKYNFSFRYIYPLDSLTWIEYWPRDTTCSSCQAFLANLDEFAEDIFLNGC
Starred links: 1 amine or outer side, 2 acyl side, 3 side chain; linkers in the order of their positions; H or OH if unused. Positions of bridges follow the written chain, without caps; N, C: chain ends. Non-standard residues stand in square brackets, D forms with d. Residues, ends and D or L forms follow the SMILES beside them. Trp(7-aza) = N[C@@H](Cc1c[nH]c2ncccc12)C(=O)O; mXylylene = c1cc(C[*:1])cc(C[*:2])c1; Phg = N[C@H](C(=O)O)c1ccccc1; NMeS = CN[C@@H](CO)C(=O)O; Nva = CCC[C@H](N)C(=O)O
# log scale: pIC50 equals minus log10 of the concentration in mol/L

Reported pIC50 ( CCC[C@H](NC(C)=O)C(=O)N[C@@H](CCC)C(=O)N[C@@H](Cc1ccc(O)cc1)C(=O)N[C@@H](CCC(=O)O)C(=O)N[C@@H](CC(N)=O)C(=O)N[C@H](C(=O)N[C@@H](Cc1ccc(O)cc1)C(=O)N[C@@H](Cc1c[nH]c2ncccc12)C(=O)N[C@@H](CCC(=O)O)C(=O)N[C@@H](Cc1ccc(O)cc1)C(=O)N1CCC[C@H]1C(=O)N[C@H](C(=O)N[C@@H](CCC)C(=O)N[C@@H](CCCCNC(=O)CCCCCNC(=O)CCC1=C(C)C2=Cc3ccc(-c4ccc(OC)cc4)n3[B-](F)(F)[N+]2=C1C)C(N)=O)C1CCCCC1)C(C)(C)C ) = 6.53

Reported pIC50 ( CCC[C@H](NC(=O)[C@@H]1CSCc2cccc(c2)CSC[C@H](NC(=O)[C@H](CCC)NC(C)=O)C(=O)N[C@@H](c2ccccc2)C(=O)N[C@@H]([C@@H](C)O)C(=O)N[C@@H](Cc2c[nH]c3ncccc23)C(=O)N[C@@H](CCC(=O)O)C(=O)N[C@@H](Cc2ccc(O)cc2)C(=O)N(C)[C@@H](CO)C(=O)N[C@@H](C)C(=O)N1)C(N)=O [Compound R3038] (Ac-[Nva]C[Phg]T[Trp(7-aza)]EY[NMeS]AC[Nva]-NH2; linker 2-10 via mXylylene) ) = 6.85

Reported pIC50 ( CC(=O)N[C@H]1CSCc2cccc(c2)CSC[C@@H](C(=O)N[C@@H](CC(=O)O)C(=O)N[C@H](C(=O)N[C@@H](Cc2ccc(O)cc2)C(=O)N[C@@H](Cc2c[nH]c3ncccc23)C(=O)N[C@@H](CCC(=O)O)C(=O)N[C@@H](Cc2ccc(O)cc2)C(=O)N2CCC[C@H]2C(=O)N[C@H](C(=O)N[C@@H](CCCCN)C(N)=O)c2ccccc2)C(C)(C)C)NC(=O)[C@H](Cc2ccccc2)NC(=O)[C@H](CCCNC(=N)N)NC(=O)[C@H](CCC(=O)O)NC(=O)[C@H](C)NC1=O ) = 8.15

Reported pIC50 ( CCC[C@H](NC(=O)[C@@H]1CSCc2cccc(c2)CSC[C@H](NC(=O)[C@H](CCC)NC(C)=O)C(=O)N[C@@H](c2ccccc2)C(=O)N[C@@H]([C@@H](C)O)C(=O)N[C@@H](Cc2c[nH]c3ncccc23)C(=O)N[C@@H](CCC(=O)O)C(=O)N[C@@H](Cc2ccccc2)C(=O)N(C)[C@@H](CO)C(=O)N[C@@H](C)C(=O)N1)C(N)=O [Compound R3100] (Ac-[Nva]C[Phg]T[Trp(7-aza)]EF[NMeS]AC[Nva]-NH2; linker 2-10 via mXylylene) ) = 6.20

Reported pIC50 ( CCCCCCCCCCCC(=O)NCCCC[C@H](NC(=O)[C@@H](NC(=O)[C@@H]1CCCN1C(=O)[C@H](Cc1ccc(O)cc1)NC(=O)[C@H](CCC(=O)O)NC(=O)[C@H](Cc1c[nH]c2ncccc12)NC(=O)[C@H](Cc1ccc(O)cc1)NC(=O)[C@@H](NC(=O)[C@H](CC(=O)O)NC(=O)[C@@H]1CSCc2cccc(c2)CSC[C@H](NC(C)=O)C(=O)N[C@@H](C)C(=O)N[C@@H](CCC(=O)O)C(=O)N[C@@H](CCCNC(=N)N)C(=O)N[C@@H](Cc2ccccc2)C(=O)N1)C(C)(C)C)c1ccccc1)C(N)=O ) = 7.44
